target: UniProtKB P26684; test: Inhibition of [125I]ET1 binding to rat aorta membranes(ETA)
quantity measured: IC50 (nM)
One number for each entry, in nM.

smiles data	numeric readout
CCOc1ccc2c(c1)c(-c1ccc(OC)cc1)c(C(=O)O)c(=O)n2Cc1cc(OC)ccc1OC	260
CCOc1ccc2c(c1)c(-c1ccc3c(c1)OCO3)c(C(=O)O)c(=O)n2Cc1ccccc1OC	380

Turning now to a further compound:
GET /values?readout=IC50&item= "CCOc1ccc2c(c1)c(-c1ccc3c(c1)OCO3)c(C(=O)O)n2Cc1ccc(OC)cc1"
130000

----------
target: Endothelin-1 receptor (Rattus norvegicus, UniProt P26684); assay: Inhibition of [125I]ET1 binding to rat aorta membranes(ETA)
Sequence (P26684 whole entry): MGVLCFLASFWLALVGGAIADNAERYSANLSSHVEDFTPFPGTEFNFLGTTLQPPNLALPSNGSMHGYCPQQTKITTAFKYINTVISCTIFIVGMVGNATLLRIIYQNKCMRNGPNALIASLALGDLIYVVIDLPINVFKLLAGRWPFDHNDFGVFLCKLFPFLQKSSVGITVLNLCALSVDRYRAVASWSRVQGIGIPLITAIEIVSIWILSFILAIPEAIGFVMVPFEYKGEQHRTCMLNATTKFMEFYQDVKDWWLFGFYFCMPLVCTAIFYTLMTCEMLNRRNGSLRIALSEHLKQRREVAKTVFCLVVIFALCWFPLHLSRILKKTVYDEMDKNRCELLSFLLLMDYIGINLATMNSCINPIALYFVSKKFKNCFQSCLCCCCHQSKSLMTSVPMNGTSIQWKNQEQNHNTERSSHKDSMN
IC50 strictly less than 2000 nM = met. Otherwise not met.

smiles data	study system	group label
O=C(O)c1c(-c2ccc3c(c2)OCO3)c2ccccc2n(Cc2ccc3c(c2)OCO3)c1=O	Endothelin-1 receptor (Rattus norvegicus, UniProt P26684)	not met

Does the reported IC50 of "COc1ccc(Cn2c(=O)c(C(=O)O)c(-c3ccc4c(c3)OCO4)c3ccccc32)cc1" stay below 2000 nM?
not met

Query "CCOc1ccc2c(c1)c(-c1ccc(OC)cc1OC)c(C(=O)O)c(=O)n2Cc1ccccc1OC" next
met

Query "COc1ccccc1Cn1c(=O)c(C(=O)O)c(-c2ccc3c(c2)OCO3)c2c(OC)c(OC)ccc21" next
not met

Query "CCOc1ccc2c(c1)c(-c1ccc(OC)cc1)c(C(=O)O)c(=O)n2Cc1ccccc1OC" next
met

Query "CCc1ccc2c(c1)c(-c1ccc3c(c1)OCO3)c(C(=O)O)c(=O)n2Cc1ccccc1OC" next
met

Query "COc1cccc(Cn2c(=O)c(C(=O)O)c(-c3ccc4c(c3)OCO4)c3ccccc32)c1" next
not met

Query "O=C(O)c1c(-c2ccc3c(c2)OCO3)c2ccccc2n(Cc2ccccc2)c1=O" next
not met

Data credit: ChEMBL document CHEMBL1130488
